# TARGET_DESC: T1, CD123 (Homo sapiens (Human), UniProt P26951 19-305, limits assumed)
# T1 construct: The CD123 construct used in the ELISA is not described; also called CD123-Signal
# T1 sequence: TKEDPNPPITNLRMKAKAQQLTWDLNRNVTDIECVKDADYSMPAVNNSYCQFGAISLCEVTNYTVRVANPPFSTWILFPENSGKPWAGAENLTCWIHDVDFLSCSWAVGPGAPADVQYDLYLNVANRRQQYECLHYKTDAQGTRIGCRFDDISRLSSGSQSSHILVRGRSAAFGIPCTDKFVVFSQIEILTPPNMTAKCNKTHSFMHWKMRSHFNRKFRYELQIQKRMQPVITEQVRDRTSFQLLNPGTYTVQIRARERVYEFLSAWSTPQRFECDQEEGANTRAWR
# TEST: ELISA
# Parameters: unit not given here
MEASURED_ATTRIBUTE: ELISA_avg

BINDER | QUANTITATIVE_READOUT
D domain of SEQ ID NO: 506 (designed binder) MGSWHWFKEDLAIIKQDLEALGGSEAELATFEQWIAEFEWDLQEYKGKGNPEVEALRKEAAAIRDELQAYRHN | 5.5
D domain of SEQ ID NO: 561 (designed binder) MGSWFQFKEFLAMITHNLEALGGSEAELAEFEHDIALFESELQQYKGKGNPEVEALRKEAAAIRDELQAYRHN | 3.1
D domain of SEQ ID NO: 530 (designed binder) MGSWYYFKDELADIKWDLEALGGSEAELAWFEMLIAQFELDLQWYKGKGNPEVEALRKEAAAIRDELQAYRHN | 4
D domain of SEQ ID NO: 505 (designed binder) MGSWQWFKEDLAEIKHDLEALGGSEAELAWFEDFIAQFEFDLQWYKGKGNPEVEALRKEAAAIRDELQAYRHN | 3.8
D domain of SEQ ID NO: 595 (designed binder) MGSWYEFNMRLGAIDDRLQALGGSEAELAWFEDMIAIFEDDLQIYKGKGNPEVEALEQEAAAIHQELWAYRHN | 3.8
